Biological target: SMYD3 (Homo sapiens (Human), UniProt Q9H7B4)
Assay: SMYD3 biochemical assay (SPA, 3H-SAM methylation of MEKK2 protein substrate)
Settings: read-out: SMYD3 Biochem IC50*
pIC50: −log10 of the molar value.
Known pIC50 of a selection of compounds

# COMPOUND, pIC50
rows = [
    ("O=C(N[C@H]1C[C@H]2CC[C@@H](C1)N2S(=O)(=O)N1CC2CCC(C1)N2)c1cc(C2CC2)on1 [compound 817]", 8.51),
    ("CN(CCC(F)(F)F)C1CCN(S(=O)(=O)N2[C@@H]3CC[C@H]2C[C@@H](NC(=O)c2cc(C4CC4)on2)C3)CC1 [compound 961]", 7.09),
    ("CN(CCCC(F)(F)F)C1CCN(S(=O)(=O)N2[C@@H]3CC[C@H]2C[C@@H](NC(=O)c2cc(C4CC4)on2)C3)CC1 [compound 838]", 8.31),
    ("C[C@H]1CN(S(=O)(=O)[C@H]2CC[C@@H](N(C)C)CC2)CC[C@H]1NC(=O)c1cc(C2CC2)on1 [compound 957]", 7.16),
    ("C[C@H]1C[C@@H](NC(=O)c2cc(C3CC3)on2)CCN1S(=O)(=O)C[C@H]1CC[C@H](N)C1 [compound 772]", 9.02),
    ("O=C(N[C@H]1CCN(S(=O)(=O)NC2CCNCC2)[C@@H](Cc2ccccc2)C1)c1cc(C2CC2)on1 [compound 949]", 7.28),
    ("CNC(C)(C)c1ccc(S(=O)(=O)N2[C@@H]3CC[C@H]2C[C@@H](NC(=O)c2cc(C4CC4)on2)C3)cc1 [compound 962]", 7.09),
    ("CN(CCCN1CCCC1)C1CCN(S(=O)(=O)N2[C@@H]3CC[C@H]2C[C@@H](NC(=O)c2cc(C4CC4)on2)C3)CC1 [compound 874]", 8.01),
    ("C[C@H]1C[C@@H](NC(=O)c2cc(C3CC3)on2)CCN1S(=O)(=O)N1CCC(N(C)Cc2ccccc2)CC1 [compound 839]", 8.30),
    ("O=C(N[C@H]1C[C@H]2CC[C@@H](C1)N2S(=O)(=O)[C@H]1CCCCNC1)c1cc(C2CC2)on1 [compound 883]", 7.92),
    ("CC(C)c1cc(C(=O)N[C@H]2C[C@H]3CC[C@@H](C2)N3S(=O)(=O)[C@H]2CC[C@H](N)CC2)no1 [compound 871]", 8.03),
    ("CC[C@@H]1C[C@H](NC(=O)c2cc(C3CC3)on2)CCN1S(=O)(=O)CC1CCN(C)CC1 [compound 775]", 8.97),
    ("O=C(N[C@H]1C[C@H]2CC[C@@H](C1)N2S(=O)(=O)N1CC2CCC(C1)N2CCc1ccccc1)c1cc(C2CC2)on1 [compound 867]", 8.06),
    ("CN1CCC[C@@H](S(=O)(=O)N2[C@@H]3CC[C@H]2C[C@@H](NC(=O)c2cc(C4CC4)on2)C3)C1 [compound 926]", 7.52),
    ("C[C@H]1C[C@@H](NC(=O)c2cc(C3CC3)on2)CCN1S(=O)(=O)[C@H]1CCCNC1 [compound 913]", 7.66),
    ("CN1CCC(CS(=O)(=O)N2[C@@H]3CC[C@H]2C[C@@H](NC(=O)c2cc(C4CC4)on2)C3)CC1 [Cpd. No. 770]", 9.06),
    ("O=C(N[C@H]1C[C@H]2CC[C@@H](C1)N2S(=O)(=O)NC1CCN[C@H](Cc2ccccc2)C1)c1cc(C2CC2)on1 (stereo partly drawn) [compound 942]", 7.32),
    ("CCc1cc(C(=O)N[C@H]2C[C@H]3CC[C@@H](C2)N3S(=O)(=O)[C@H]2CC[C@H](N)CC2)no1 [compound 789]", 8.80),
    ("CN(CCO)C1CCN(S(=O)(=O)N2[C@@H]3CC[C@H]2C[C@@H](NC(=O)c2cc(C4CC4)on2)C3)CC1 [compound 820]", 8.49),
    ("C[C@H](NC1CCN(S(=O)(=O)N2[C@@H]3CC[C@H]2C[C@@H](NC(=O)c2cc(C4CC4)on2)C3)CC1)c1ccccc1 [compound 927]", 7.51),
    ("O=C(N[C@H]1C[C@H]2CC[C@@H](C1)N2S(=O)(=O)N1CCC(NCc2c(F)cccc2F)CC1)c1cc(C2CC2)on1 [compound 924]", 7.54),
]
